Origin of the recorded values: ChEMBL document CHEMBL3045490

tested on: Botrytis cinerea; test: Antifungal activity against Botryotinia fuckeliana in cucumber cotyledon assessed as lesion area of the disease at 500 ug/ml after 4 days; format: functional
Result type: Activity

Solved entries (count: 5):
CCC1(C(=O)Nc2ccc(Cl)cc2)C(C)C1(Cl)Cl (stereo not drawn)
>=80%
CCC1(C(=O)NCCc2cc(Br)cs2)C(C)C1(Cl)Cl (stereo not drawn)
<40%
CCC1(C(=O)NCCc2ccccc2Cl)C(C)C1(Cl)Cl (stereo not drawn)
>=80%
CCC1(C(=O)NCCc2ccc(Cl)c(Cl)c2)C(C)C1(Cl)Cl (stereo not drawn)
>=80%
CCC1(C(=O)NC(C)C2CC2(Cl)Cl)C(C)C1(Cl)Cl (stereo not drawn)
>=80%

Lab note: CC(NC(=O)C1(C2CCCC2)CC1(Cl)Cl)c1ccc(Cl)cc1 (stereo not drawn) gave Activity of >=80%

Lab note: N#Cc1c[nH]cc1-c1cccc2c1OC(F)(F)O2 [FLUDIOXONIL] gave Activity of 0%

Lab note: CC(C)(C)C(C#N)C(=O)NCCc1csc(Cl)c1 (stereo not drawn) gave Activity of >=80%

Lab note: CCC1(C(=O)NCc2ccc(Cl)cc2)C(C)C1(Cl)Cl (stereo not drawn) gave Activity of >=80%

Lab note: CC(NC(=O)C1(C(C)C)CC1(Cl)Cl)c1ccc(Cl)cc1 (stereo not drawn) gave Activity of >=80%

Lab note: CCC1(C(=O)NC(C)c2ccc(Cl)s2)C(C)C1(Cl)Cl (stereo not drawn) gave Activity of >=80%

Lab note: CC1(C(=O)NCCc2csc(Cl)c2)CC1(Cl)Cl (stereo not drawn) gave Activity of >=80%

Lab note: CCC1(C(=O)NC(C)c2csc(Cl)c2)C(C)C1(Cl)Cl (stereo not drawn) gave Activity of >=80%
